target: JAK2 (Homo sapiens); construct: made in house; host or cells: SF9 insect cells (baculovirus); experiment: JAK2 inhibition (Table 4); assay type: biochemical; details: read-out: JAK2 Ki
pKi: −log10 of the molar value.
readoutKind: pKi

Consider the worked cases shown below.
molecule | pKi
OCc1nc2cnc3[nH]ccc3c2n1C1CC2CCC1O2 (single isomer, unassigned) [Example 851] | 7.27
N#CCCN1[C@@H]2CC[C@H]1C[C@H](n1cnc3cnc4[nH]ccc4c31)C2 | 8.79

I = CC(=O)N1CCC[C@@H](n2cnc3cnc4[nH]ccc4c32)C1
II = Cc1nc2cnc3[nH]ccc3c2n1C1CCC(NC(=O)N(C)CC(F)F)CC1 (centres unmarked)
III = COC(=O)N1CCCC(n2c([C@@H](C)O)nc3cnc4[nH]ccc4c32)C1 (some centres unmarked)
Qu. Hi! Can you put these in order of pKi, lowest number first? A complete answer lists every label in the requested sequence.
Ans. III, I, II
(III: 5.76, I: 7.37, II: 7.66)

###

biological target: JAK3 (Homo sapiens, UniProt P52333); construct: made in house; host or cells: SF9 insect cells (baculovirus); experiment: JAK3 inhibition (Table 4); type: biochemical; conditions: read-out: JAK3 Ki
Sequence (P52333 783-1124): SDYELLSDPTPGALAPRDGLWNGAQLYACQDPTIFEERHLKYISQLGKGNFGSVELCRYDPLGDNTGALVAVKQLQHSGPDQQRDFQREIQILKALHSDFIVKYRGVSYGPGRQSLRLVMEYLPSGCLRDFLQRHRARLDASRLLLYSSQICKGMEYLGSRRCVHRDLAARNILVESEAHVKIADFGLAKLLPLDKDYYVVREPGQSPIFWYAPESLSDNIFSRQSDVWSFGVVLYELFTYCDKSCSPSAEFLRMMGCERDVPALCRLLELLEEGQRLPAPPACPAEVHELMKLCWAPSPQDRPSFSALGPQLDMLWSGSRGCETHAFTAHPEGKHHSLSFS
readoutKind: Ki (nM)

a = CC(C)NC(=O)Cc1nc2cnc3[nH]ccc3c2n1C1CCN(CCC#N)CC1
b = Cn1cc2c(n1)CCC(n1cnc3cnc4[nH]ccc4c31)C2 (racemic)
c = c1ccc(N2CCC[C@@H](n3cnc4cnc5[nH]ccc5c43)C2)cc1
d = CC(CC#N)N1CCC(n2c(CNS(C)(=O)=O)nc3cnc4[nH]ccc4c32)CC1 (racemic)
Qu. Please list these compounds in decreasing order of Ki. A complete answer lists every label in the requested sequence.
Ans. b, d, c, a
(b: 410 nM, d: 69.4 nM, c: 17.2 nM, a: 7.87 nM)

###

molecular target: JAK2 (Homo sapiens, UniProt O60674); construct: made in house; host or cells: SF9 insect cells (baculovirus); experiment: JAK2 inhibition (Table 4); type: biochemical; conditions: read-out: JAK2 Ki
Sequence (O60674 812-1132): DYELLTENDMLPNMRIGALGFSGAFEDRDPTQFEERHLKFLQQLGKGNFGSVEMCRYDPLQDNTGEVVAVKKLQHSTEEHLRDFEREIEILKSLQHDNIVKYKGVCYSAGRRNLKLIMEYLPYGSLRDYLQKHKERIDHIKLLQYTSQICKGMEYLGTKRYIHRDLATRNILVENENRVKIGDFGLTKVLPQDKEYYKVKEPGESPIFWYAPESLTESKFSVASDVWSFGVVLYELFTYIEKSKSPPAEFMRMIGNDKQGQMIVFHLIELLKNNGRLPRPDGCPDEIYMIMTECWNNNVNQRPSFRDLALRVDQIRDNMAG
readoutKind: Ki (nM)

compound | obsValue
CCN1CCC(n2c([C@@H](C)O)nc3cnc4[nH]ccc4c32)C(F)(F)C1 (single isomer, unassigned) [Example 880] | 19.4
N#CCCN1CCC(n2c(C(F)(F)F)nc3cnc4[nH]ccc4c32)CC1 | 9.21
CC(O)c1nc2cnc3[nH]ccc3c2n1C1CC2CCC1O2 (stereo not shown) [Example 848] | 156
COCCN1CCCC[C@H]1C(=O)N1CCC(n2cnc3cnc4[nH]ccc4c32)CC1 | 628
CCC(COC)n1c(C(C)O)nc2cnc3[nH]ccc3c21 (single isomer, unassigned) [Example 182a] | 888

a = OCc1nc2cnc3[nH]ccc3c2n1C1CCN(CC(F)F)CC1
b = C[C@@H](O)c1nc2cnc3[nH]ccc3c2n1C1CCN(CC(=O)N2CCCC2)CC1
Qu. Pick one: a or b . Which one has the lower reported Ki? Output the label that corresponds to your choice.
Ans. a
(a: 9.44 nM, b: 983 nM)

1 = CNc1nc2cnc3[nH]ccc3c2n1C1CCN(CC(F)(F)F)CC1
2 = N#CC1(C(=O)N2CCC[C@@H](n3cnc4cnc5[nH]ccc5c43)C2)CC1
Qu. Pick one: 1 or 2 . Which one has the lower reported Ki? Output the label that corresponds to your choice.
Ans. 2

A = CS(=O)(=O)NCc1nc2cnc3[nH]ccc3c2n1C1CCN(CC(F)(F)F)CC1
B = CCOC(=O)N1CC[C@H](n2c([C@@H](C)O)nc3cnc4[nH]ccc4c32)C1
C = O=C(Cc1nc2cnc3[nH]ccc3c2n1C1CCCOC1)N1CCCOCC1 (racemic)
Qu. Order the records so the highest Ki appears first and the lowest last. A complete answer lists every label in the requested sequence.
Ans. B, C, A
(B: 1860 nM, C: 506 nM, A: 46.6 nM)

A = CC(O)c1nc2cnc3[nH]ccc3c2n1C1CCN(CC(F)(F)F)CC1 (racemic)
B = N#CCCN1CCC(n2c(CCNS(=O)(=O)C3CC3)nc3cnc4[nH]ccc4c32)CC1
Qu. Pick one: A or B . Which one has the lower reported Ki? Output the label that corresponds to your choice.
Ans. B
